B1: Pistol ribozyme (parent)
chain: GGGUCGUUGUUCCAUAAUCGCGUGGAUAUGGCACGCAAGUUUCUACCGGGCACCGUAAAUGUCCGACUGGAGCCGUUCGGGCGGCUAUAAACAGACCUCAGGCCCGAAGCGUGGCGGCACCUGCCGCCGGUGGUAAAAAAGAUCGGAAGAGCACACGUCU

Variants of: B1
Test: aptazyme ON/OFF ratio, guanine; higher = stronger switching; co-transcriptional cleavage with and without guanine

# MUTATION_DESCRIPTOR, aptazyme ON/OFF ratio
rows = [
    ("G9A U10A U11C C12A", 1.65),
    ("U7C U8A C13U", 1.71),
    ("U7C U8C G9C U10A C12U C13A", 1.11),
    ("U7C G9U U10C U11G C12U C13G", 1.15),
    ("U7G U8G U10A U11G C12U C13A", 1.23),
    ("U7A U8G G9C U10C U11C C12A C13G", 1.06),
    ("U7G U8G G9C U10A C12G", 1.03),
    ("U7A U8A G9C U10A U11G C12A C13U", 1.08),
    ("U7A G9U U10G U11A C12G C13U", 1.31),
    ("U7C U11C C13A", 1.15),
    ("U7C G9C U10C C12G C13U", 1.08),
    ("U7C G9U U10G U11G C12U", 1.16),
    ("U7A U8C C12G C13U", 1.35),
    ("U7G U8C U10C U11G C12U", 1.3),
    ("G9A U11C C13U", 1.11),
    ("U8C G9C U11G C12G C13A", 1.12),
    ("U7C G9C U10C U11G C13A", 1.12),
    ("U8A G9U U10A U11A C12U", 1.32),
    ("U8G G9U U10A U11G C12A C13A", 1.05),
    ("U7A U8A G9U U10G U11G C12U", 1.37),
    ("U8C G9A C12G", 1.26),
    ("U7C U8A G9U U10A C12U C13A", 1.24),
]
